Target: SMARCA2 (Homo sapiens, UniProt P51531)
Sequence (P51531 whole entry): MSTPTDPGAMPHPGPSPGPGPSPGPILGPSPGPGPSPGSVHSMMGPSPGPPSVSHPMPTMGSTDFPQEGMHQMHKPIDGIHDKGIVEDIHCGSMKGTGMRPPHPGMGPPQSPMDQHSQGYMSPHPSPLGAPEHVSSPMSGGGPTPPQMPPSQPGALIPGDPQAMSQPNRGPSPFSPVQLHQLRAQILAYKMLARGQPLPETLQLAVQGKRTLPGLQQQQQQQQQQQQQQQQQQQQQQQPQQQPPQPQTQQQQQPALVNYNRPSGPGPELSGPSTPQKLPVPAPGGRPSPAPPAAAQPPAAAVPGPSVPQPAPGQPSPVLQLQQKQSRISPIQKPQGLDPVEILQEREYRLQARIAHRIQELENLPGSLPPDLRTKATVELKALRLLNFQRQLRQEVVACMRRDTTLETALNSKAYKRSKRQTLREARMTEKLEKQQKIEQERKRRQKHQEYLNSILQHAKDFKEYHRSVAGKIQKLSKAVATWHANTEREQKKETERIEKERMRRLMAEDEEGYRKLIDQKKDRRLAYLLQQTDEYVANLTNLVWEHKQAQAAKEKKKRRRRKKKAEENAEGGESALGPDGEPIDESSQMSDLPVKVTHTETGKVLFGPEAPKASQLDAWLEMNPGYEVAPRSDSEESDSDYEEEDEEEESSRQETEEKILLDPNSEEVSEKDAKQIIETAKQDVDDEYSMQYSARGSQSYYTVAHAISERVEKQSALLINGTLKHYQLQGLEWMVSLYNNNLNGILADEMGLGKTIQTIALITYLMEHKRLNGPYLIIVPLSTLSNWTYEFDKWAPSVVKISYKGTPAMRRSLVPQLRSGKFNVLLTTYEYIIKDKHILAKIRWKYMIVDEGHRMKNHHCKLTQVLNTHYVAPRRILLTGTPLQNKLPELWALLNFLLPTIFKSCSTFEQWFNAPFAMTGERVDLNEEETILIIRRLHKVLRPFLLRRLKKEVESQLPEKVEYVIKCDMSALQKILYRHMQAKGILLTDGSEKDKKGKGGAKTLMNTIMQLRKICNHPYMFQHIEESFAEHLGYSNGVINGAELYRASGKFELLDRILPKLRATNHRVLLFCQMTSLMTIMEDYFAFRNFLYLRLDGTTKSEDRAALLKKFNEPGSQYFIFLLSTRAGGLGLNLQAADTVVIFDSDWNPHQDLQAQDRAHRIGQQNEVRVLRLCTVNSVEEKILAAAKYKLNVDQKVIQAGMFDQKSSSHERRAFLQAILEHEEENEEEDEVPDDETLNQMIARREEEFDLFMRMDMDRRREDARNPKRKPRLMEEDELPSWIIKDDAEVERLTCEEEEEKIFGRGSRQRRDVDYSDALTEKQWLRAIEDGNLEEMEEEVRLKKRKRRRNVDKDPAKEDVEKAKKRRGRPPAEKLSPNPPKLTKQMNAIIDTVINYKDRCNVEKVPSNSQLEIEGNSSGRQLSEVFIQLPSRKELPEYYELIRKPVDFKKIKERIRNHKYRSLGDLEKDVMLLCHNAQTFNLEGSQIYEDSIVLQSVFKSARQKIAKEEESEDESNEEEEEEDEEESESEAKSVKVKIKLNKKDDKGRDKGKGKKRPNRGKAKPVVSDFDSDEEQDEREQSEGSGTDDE
Experiment: SMARCA2 Western blot degradation in MV4-11 cells
Format: cell-based
Parameters: SMARCA2/SMARCA4 protein degradation selectivity in MV4-11 cells; endogenous in cells; host or cells: MV4-11
Conditions: SMARCA2/4 selectivity, MV4-11 cells
Recorded endpoint: Selectivity in MV411

[[record]]
compound = "Cc1ncsc1-c1ccc(CNC(=O)[C@@H]2C[C@@H](O)CN2C(=O)C(c2cc(N3CC4(CC(N5CCC(c6cnc(N7CCc8[nH]c9nnc(-c%10ccccc%10O)cc9c8[C@@H]7C)nc6)CC5)C4)C3)no2)C(C)C)cc1 (stereo partly shown)"
recorded_endpoint = "Selectivity in MV411"
value_measured = "D (D (<10 fold))"

[[record]]
compound = "C#Cc1ccc(CNC(=O)[C@@H]2C[C@@H](O)CN2C(=O)[C@@H](NC(=O)[C@H]2CC3(C2)C[C@H](N2CCC(N4CCC(N5CCN6c7cc(-c8ccccc8O)nnc7NC[C@H]6C5)CC4)CC2)C3)C(C)(C)C)cc1 (single isomer, unassigned)"
recorded_endpoint = "Selectivity in MV411"
value_measured = "B (B (>100-500 fold))"

[[record]]
compound = "C#Cc1ccc(CNC(=O)[C@@H]2C[C@@H](O)CN2C(=O)[C@@H](NC(=O)[C@H]2CCC3(CC2)C[C@H](N2CCC(N4CC5(CC(N6CCN7c8cc(-c9ccccc9O)nnc8NC[C@H]7C6)C5)C4)CC2)C3)C(C)(C)C)c(Cl)c1 (single isomer, unassigned) [I-238]"
recorded_endpoint = "Selectivity in MV411"
value_measured = "C (C (10-100 fold))"

[[record]]
compound = "C#Cc1ccc(CNC(=O)[C@@H]2C[C@@H](O)CN2C(=O)[C@@H](NC(=O)N2CCO[C@@H](CN3CCC(N4CCC(N5CCN6c7cc(-c8ccccc8O)nnc7NC[C@H]6C5)CC4)CC3)C2)C(C)(C)C)cc1"
recorded_endpoint = "Selectivity in MV411"
value_measured = "C (C (10-100 fold))"

[[record]]
compound = "Cc1ncsc1-c1ccc(CNC(=O)[C@@H]2C[C@@H](O)CN2C(=O)[C@@H](NC(=O)[C@H]2CC3(C2)C[C@H](N2CCN(c4cnc(N5CCN6c7cc(-c8ccccc8O)nnc7NC[C@H]6C5)nc4)CC2)C3)C(C)(C)C)cc1 (stereo partly shown) [I-18]"
recorded_endpoint = "Selectivity in MV411"
value_measured = "C (C (10-100 fold))"

[[record]]
compound = "C#Cc1ccc2c(c1)OCC[C@@H]2NC(=O)[C@@H]1C[C@@H](O)CN1C(=O)[C@@H](NC(=O)N1CC2(CC(N3CCC(c4cnc(N5CCc6[nH]c7nnc(-c8ccccc8O)cc7c6[C@H]5C)nc4)CC3)C2)C1)C(C)(C)C (single isomer, unassigned)"
recorded_endpoint = "Selectivity in MV411"
value_measured = "D (D (<10 fold))"

[[record]]
compound = "Cc1ncsc1-c1ccc(CNC(=O)[C@@H]2C[C@@H](O)CN2C(=O)[C@@H](NC(=O)[C@H]2CC3(C2)C[C@H](N2CCC(N4CCC(c5ccc6[nH]c7nnc(-c8ccccc8O)cc7c6c5)CC4)CC2)C3)C(C)(C)C)cc1 (single isomer, unassigned) [I-29]"
recorded_endpoint = "Selectivity in MV411"
value_measured = "B (B (>100-500 fold))"

[[record]]
compound = "C#Cc1ccc(CNC(=O)[C@@H]2C[C@@H](O)CN2C(=O)[C@@H](NC(=O)N2CC3(CC(N4CCC5(CCN(c6cnc(N7CCc8[nH]c9nnc(-c%10ccccc%10O)cc9c8C7C)nc6)C5)C4)C3)C2)C(C)(C)C)cc1 (stereo partly shown)"
recorded_endpoint = "Selectivity in MV411"
value_measured = "C (C (10-100 fold))"

[[record]]
compound = "Cc1ncsc1-c1ccc(CNC(=O)[C@@H]2C[C@@H](O)CN2C(=O)C(c2cc(OCCCCN3CCC(c4cnc(N5CCN6c7cc(-c8ccccc8O)nnc7NC[C@@H]6C5)nc4)CC3)no2)C(C)C)cc1 (stereo partly shown)"
recorded_endpoint = "Selectivity in MV411"
value_measured = "D (D (<10 fold))"

[[record]]
compound = "Cc1ncsc1-c1ccc(CNC(=O)[C@@H]2C[C@@H](O)CN2C(=O)C(c2cc(OC[C@H]3CC[C@@H](N4CCC(c5cnc(N6CCc7[nH]c8nnc(-c9ccccc9O)cc8c7[C@@H]6C)nc5)CC4)CC3)no2)C(C)C)cc1 (single isomer, unassigned)"
recorded_endpoint = "Selectivity in MV411"
value_measured = "D (D (<10 fold))"

[[record]]
compound = "C#Cc1ccc(CNC(=O)[C@@H]2C[C@@H](O)CN2C(=O)[C@@H](NC(=O)[C@H]2CCC3(CC2)C[C@H](N2CCC(N4CCC(N5CCN6c7cc(-c8ccccc8O)nnc7NC[C@H]6C5)CC4)CC2)C3)C(C)(C)C)cc1 (single isomer, unassigned) [I-175]"
recorded_endpoint = "Selectivity in MV411"
value_measured = "B (B (>100-500 fold))"

[[record]]
compound = "C#Cc1ccc([C@H](C)NC(=O)[C@@H]2C[C@@H](O)CN2C(=O)[C@@H](NC(=O)N2CC3(CC(N4CCC(c5cnc(N6CCc7[nH]c8nnc(-c9ccccc9O)cc8c7[C@H]6C)cn5)CC4)C3)C2)C(C)(C)C)cc1"
recorded_endpoint = "Selectivity in MV411"
value_measured = "C (C (10-100 fold))"

[[record]]
compound = "C#Cc1ccc(CNC(=O)[C@@H]2C[C@@H](O)CN2C(=O)[C@@H](NC(=O)N2CCN(C[C@H]3CCN(c4cnc(N5CCc6[nH]c7nnc(-c8ccccc8O)cc7c6[C@H]5C)nc4)C3)CC2)C(C)(C)C)cc1 (single isomer, unassigned)"
recorded_endpoint = "Selectivity in MV411"
value_measured = "C (C (10-100 fold))"

[[record]]
compound = "C#CCOc1cc(C(C(=O)N2C[C@H](O)C[C@H]2C(=O)NCc2ccc(-c3scnc3C)cc2O[C@H]2CC[C@H](N3CCC(c4cnc(N5CCc6[nH]c7nnc(-c8ccccc8O)cc7c6[C@@H]5C)nc4)CC3)CC2)C(C)C)on1 (single isomer, unassigned)"
recorded_endpoint = "Selectivity in MV411"
value_measured = "D (D (<10 fold))"

[[record]]
compound = "C#Cc1ccc(CNC(=O)[C@@H]2C[C@@H](O)CN2C(=O)[C@@H](NC(=O)[C@H]2CCC3(CC2)C[C@H](N2CCN(c4cnc(N5CCN6c7cc(-c8ccccc8O)nnc7NC[C@H]6C5)nc4)CC2)C3)C(C)(C)C)c(OC)c1 (single isomer, unassigned) [I-195]"
recorded_endpoint = "Selectivity in MV411"
value_measured = "C (C (10-100 fold))"

